Sourced from the array DNA melting data of Ke et al. (doi:10.1101/2024.01.08.574731)

TEST_METHOD_NOTES: melting temperature; fluorescence melt of hairpins on a sequencing array, two-state fit, raised by 9.35 °C to match UV melts
CONDITION_PARAMETERS: sodium 0.088 M
# note: exactly 50 °C is not below, so it is no (0); use yes (1) for Tm strictly under it

{"PRIMARY_SEQUENCE": "GAATCAGGAAACTGACTC ((.((((....)))).))", "CLASS_ASSIGNMENT": "yes (1)"}
{"PRIMARY_SEQUENCE": "GATCCGGACACGGATC ((((((....))))))", "CLASS_ASSIGNMENT": "no (0)"}
{"PRIMARY_SEQUENCE": "GTTTCCCGAAAGGGGAAC (((.(((....))).)))", "CLASS_ASSIGNMENT": "no (0)"}
{"PRIMARY_SEQUENCE": "GAAGACGGAAACGTTTTC (((.(((....))).)))", "CLASS_ASSIGNMENT": "yes (1)"}
{"PRIMARY_SEQUENCE": "GTCAGCCCGAAAGGGGAC (((..(((....))))))", "CLASS_ASSIGNMENT": "yes (1)"}

**Q:** Answer whether the sequence GGGCCGGGAAACCGGTCC ((.((((....)))).)) has Tm strictly less than 50 °C
**A:** no (0)

**Q:** Is the reported Tm for GGTCACGAAAGTGGGACC ((((((....)))..))) strictly below 50 °C?
**A:** yes (1)

**Q:** Below 50 °C on Tm? Entry GCGTGAGCGAAAGCTCGC (((..(((....))))))
**A:** no (0)

**Q:** Does the reported Tm of GTGGGAGGAAACTCTCGC (.(.(((....))).).) stay below 50 °C?
**A:** yes (1)

**Q:** In plain terms, does GTGATTGGAAACGATCAC (((((.(....).))))) come in under 50 °C for Tm?
**A:** yes (1)

**Q:** # strict comparison: is reported Tm < 50 °C? input = GATCGCTATGGCGATC ((((((....))))))
**A:** no (0)

**Q:** Does the reported Tm of the following sequence sit strictly below 50 °C? GGCATCCGAAAGGAGCC (((.(((....))))))
**A:** no (0)

* * *

TEST_METHOD_NOTES: melting temperature; fluorescence melt of hairpins on a sequencing array, two-state fit, raised by 9.35 °C to match UV melts
CONDITION_PARAMETERS: sodium 0.088 M
Provide the reported Tm of each item.
One number for each entry, in °C.

The following sequences have reported results that may help.
{"PRIMARY_SEQUENCE": "GCATCGCGAAAGCTAAGC ((.(.((....)).).))", "DISPLAY_UNIT": "°C", "Tm": 30.7}
{"PRIMARY_SEQUENCE": "GACAGCGAAAGCTTGTC ((((((....))).)))", "DISPLAY_UNIT": "°C", "Tm": 52.6}
{"PRIMARY_SEQUENCE": "GATCCTTAACAGGATC ((((((....))))))", "DISPLAY_UNIT": "°C", "Tm": 49}
{"PRIMARY_SEQUENCE": "GCGCCCCGAAAGGGCCGC (((.(((....))).)))", "DISPLAY_UNIT": "°C", "Tm": 61.2}

For every listed record, write down its Tm.
1. GCTTGCGAAAGCACTAGC ((((((....)))..)))
2. GATCTTATTCAAGATC ((((((....))))))
3. GTATCCCGAAAGGGTAC (((.(((....))))))
4. GCCGTGGGAAACCACGAC (.(((((....))))).)
5. GATCATTGCTATGATC ((((((....))))))

**A:**
1. 33.8
2. 43.5
3. 49
4. 52
5. 47.8

Record Tm per entry; entries follow.
1. GTCTGCGGAAACGTGGAC (((..((....))..)))
2. GAAGGCGGAAACGCTTTC (((.(((....))).)))

**A:**
47.5
48.2

**Q:** Give reported Tm value for GCAGACGAAAGTCCGTGC ((((((....)))..)))
**A:** 38.6
